B1: Cytoplasmic polyadenylation element-binding protein 2, residues 513 to 575; numbered along this chain, Q7Z5Q1 (parent)
chain: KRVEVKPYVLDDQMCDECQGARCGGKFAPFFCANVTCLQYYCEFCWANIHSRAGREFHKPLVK

# Variants of: B1
# ASSAY_REMARKS: abundance fitness (aPCA) (normalised: wild type 0, dead -1); higher = more abundant; growth selection in yeast, the domain comes from the species named
# TEST_CONDITIONS: Homo sapiens
abundance fitness values, listed per item

{"VARIANT_DESCRIPTOR": "V35N", "abundance fitness": 0.108}
{"VARIANT_DESCRIPTOR": "G54H", "abundance fitness": -0.123}
{"VARIANT_DESCRIPTOR": "G25F", "abundance fitness": -0.118}
{"VARIANT_DESCRIPTOR": "F27D", "abundance fitness": -0.125}
{"VARIANT_DESCRIPTOR": "K63E", "abundance fitness": 0.014}
{"VARIANT_DESCRIPTOR": "N34R", "abundance fitness": -0.207}
{"VARIANT_DESCRIPTOR": "R55N", "abundance fitness": -0.019}
{"VARIANT_DESCRIPTOR": "Y8H", "abundance fitness": -0.036}
{"VARIANT_DESCRIPTOR": "D16L", "abundance fitness": -0.271}
{"VARIANT_DESCRIPTOR": "Q13H", "abundance fitness": -0.087}
{"VARIANT_DESCRIPTOR": "G20C", "abundance fitness": -0.503}
{"VARIANT_DESCRIPTOR": "D11M", "abundance fitness": -0.259}
{"VARIANT_DESCRIPTOR": "A33F", "abundance fitness": -0.336}
{"VARIANT_DESCRIPTOR": "G20F", "abundance fitness": -0.987}
{"VARIANT_DESCRIPTOR": "Y40S", "abundance fitness": -0.178}
{"VARIANT_DESCRIPTOR": "Y41R", "abundance fitness": -0.804}
{"VARIANT_DESCRIPTOR": "D16A", "abundance fitness": 0.098}
{"VARIANT_DESCRIPTOR": "M14R", "abundance fitness": -0.154}
{"VARIANT_DESCRIPTOR": "W46P", "abundance fitness": -0.624}
{"VARIANT_DESCRIPTOR": "C23T", "abundance fitness": -0.095}
{"VARIANT_DESCRIPTOR": "V5L", "abundance fitness": -0.136}
{"VARIANT_DESCRIPTOR": "V9M", "abundance fitness": 0.049}
